Quick record: Ki, 5-HT2B receptor (Homo sapiens).
Where a name gives a salt, the structure may show the parent alone.

Worked examples follow.
{"columns": ["molecule", "Ki"],
 "data": [
  ["Fc1ccc(-c2nc(Cc3ccccc3)nc3c2CCCNC3)cc1 [Example 64, hydrochloride]", "1300 nM"],
  ["CCC(C)c1nc2c(c(-c3ccc(OC)cc3)n1)CNCC2 (stereo not drawn) [Example 44]", "500 nM"],
  ["Cc1ccc(-c2nc(C(C)C)nc3c2CNCC3)cc1 [Example 28]", "400 nM"],
  ["Fc1ccc(-c2nc(-c3ccccc3)nc3c2CNCC3)cc1 [Example 117]", "1000 nM"],
  ["CC(C)c1nc2c(c(-c3ccc(F)cc3)n1)CCC(N1CCCC1)C2 (stereo not drawn) [Example 107]", "275 nM"],
  ["Cc1ccc(-c2nc(CC(C)C)nc3c2CNCC3)cc1 [Example 38]", "50 nM"],
  ["Fc1ccc(-c2nc(Cc3ccccc3)nc3c2CNCCC3)cc1 [Example 69, hydrochloride]", "> 10000 nM"],
  ["CN1CCc2nc(Cc3ccc(F)cc3)nc(-c3ccc(F)cc3)c2C1 [Example 14]", "4000 nM"]
]}

// next entry
(Q) Give Ki; test system 5-HT2B receptor (Homo sapiens); molecule CC(C)c1nc2c(c(-c3ccc(F)cc3)n1)CCN(C)C2 [Example 84, hydrochloride]
(A) 400 nM

* * *

target: human recombinant 5-HT2C receptor (Homo sapiens); assay: Affinity for 5HT2 receptor binding sites, h5-HT2C, [3H]mesulergine; conditions: CHO h5-HT2C membranes
Sequence (P28335 33-458): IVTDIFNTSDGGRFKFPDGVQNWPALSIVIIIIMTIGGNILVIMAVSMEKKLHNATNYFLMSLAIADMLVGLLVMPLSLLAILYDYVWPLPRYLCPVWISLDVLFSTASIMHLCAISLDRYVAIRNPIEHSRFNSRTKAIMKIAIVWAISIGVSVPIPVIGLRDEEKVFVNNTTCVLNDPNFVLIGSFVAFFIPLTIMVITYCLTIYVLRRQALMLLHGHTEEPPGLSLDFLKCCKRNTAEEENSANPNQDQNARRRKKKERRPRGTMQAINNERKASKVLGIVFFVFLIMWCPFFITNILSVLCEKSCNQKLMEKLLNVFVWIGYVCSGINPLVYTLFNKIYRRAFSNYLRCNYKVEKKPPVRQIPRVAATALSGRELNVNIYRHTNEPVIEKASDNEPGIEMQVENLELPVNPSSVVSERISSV
// assign t if Ki falls strictly below 200 nM, else f (ties count as f)

Before answering, review these 3 worked examples.
{"columns": ["molecule", "assigned_label"],
 "data": [
  ["COc1ccc(-c2nc(Cc3ccccc3)nc3c2CCN(Cc2ccccc2)C3)cc1", "f"],
  ["CN1CCc2nc(Cc3ccc(F)cc3)nc(-c3ccc(F)cc3)c2CC1", "t"],
  ["Cc1ccc(-c2cc(CN(C)C)nc(Cc3ccccc3)n2)cc1", "f"]
]}

(Q) Quick check: does CC(C)c1nc2c(c(-c3ccccc3)n1)CCN(C)C2 have Ki under 200 nM?
(A) f

* * *

molecular target: rat 5-HT7a receptor (Rattus norvegicus, UniProt P32305)
Sequence (P32305 whole entry): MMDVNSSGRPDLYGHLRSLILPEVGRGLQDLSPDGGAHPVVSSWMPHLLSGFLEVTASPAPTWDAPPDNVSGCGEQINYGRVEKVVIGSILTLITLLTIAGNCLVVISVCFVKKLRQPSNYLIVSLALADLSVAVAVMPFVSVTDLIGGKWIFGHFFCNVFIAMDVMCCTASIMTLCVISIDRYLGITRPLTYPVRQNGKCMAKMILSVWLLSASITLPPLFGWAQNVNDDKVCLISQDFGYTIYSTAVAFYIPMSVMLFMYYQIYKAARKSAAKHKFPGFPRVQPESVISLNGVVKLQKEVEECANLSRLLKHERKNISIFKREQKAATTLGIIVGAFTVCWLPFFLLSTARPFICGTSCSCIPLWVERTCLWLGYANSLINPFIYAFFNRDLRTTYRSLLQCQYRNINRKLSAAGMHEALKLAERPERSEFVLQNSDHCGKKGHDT
pKi: −log10 of the molar value. Structures can show the parent of a compound that is named as a salt.
# pKi values compiled below

Worked examples follow.
{"columns": ["molecule", "pKi"],
 "data": [
  ["Cc1nc2c(c(-c3cccc(Cl)c3)n1)CCNCC2", "< 5.00"],
  ["CC(C)c1nc2c(c(-c3ccc(F)cc3)n1)CCCNC2 [Example 65, hydrochloride]", "< 5.00"],
  ["CC(C)c1nc2c(c(-c3ccc(F)cc3)n1)CCCC2", "< 5.00"],
  ["CCC(C)c1nc2c(c(-c3ccc(OC)cc3)n1)CNCC2 (stereo not shown)", "< 5.00"]
]}

(Q) Give pKi; test system rat 5-HT7a receptor (Rattus norvegicus, UniProt P32305); molecule Cc1ccc(-c2nc(C(C)C)nc3c2CN(Cc2ccccc2)CC3C)cc1 (stereo not shown)
(A) < 5.00

(Q) Give pKi; test system rat 5-HT7a receptor (Rattus norvegicus, UniProt P32305); molecule CC(C)c1nc(-c2ccccc2)c2c(n1)C(C)CNC2 (stereo not shown)
(A) < 5.00

(Q) Give pKi; test system rat 5-HT7a receptor (Rattus norvegicus, UniProt P32305); molecule CC(C)c1nc2c(c(-c3ccccc3Oc3ccccc3)n1)CNCC2
(A) < 5.00

(Q) Give pKi; test system rat 5-HT7a receptor (Rattus norvegicus, UniProt P32305); molecule Fc1ccc(-c2nc(Cc3ccccc3)nc3c2CCCNC3)cc1 [Example 64, hydrochloride]
(A) < 5.00

(Q) Give pKi; test system rat 5-HT7a receptor (Rattus norvegicus, UniProt P32305); molecule Cc1ccc(-c2nc(CC(C)C)nc3c2CNCC3)cc1
(A) < 5.00

(Q) Give pKi; test system rat 5-HT7a receptor (Rattus norvegicus, UniProt P32305); molecule Cc1ccc(-c2cc(CCN)nc(Cc3ccccc3)n2)cc1
(A) 5.30

(Q) Give pKi; test system rat 5-HT7a receptor (Rattus norvegicus, UniProt P32305); molecule Cc1ccc(-c2nc(Cc3ccccc3)nc3c2CCN(Cc2ccccc2)C3)cc1
(A) < 5.00

(Q) Give pKi; test system rat 5-HT7a receptor (Rattus norvegicus, UniProt P32305); molecule CC(C)c1nc(-c2ccccc2)c2c(n1)C(C)CN(Cc1ccccc1)C2 (stereo not shown)
(A) < 5.00

* * *

# pKi values compiled below
biological target: 5-HT2A receptor (Homo sapiens, UniProt P28223)
Counter-ions that a name gives are not always drawn.
Scale: negative log10 of molar concentration, which is what pKi denotes.

{"columns": ["compound", "quantity_name", "measured_value"],
 "data": [
  ["Fc1cccc(-c2nc(Cc3ccccc3)nc3c2CNCC3)c1", "pKi", 6.52],
  ["CC(C)c1nc(-c2ccc(F)c(Cl)c2)c2c(n1)C(C)CNC2 (centres unmarked) [Example 101, hydrochloride]", "pKi", 6.40],
  ["Fc1ccc(-c2nc(Cc3ccccc3)nc3c2CCNC3)cc1 [Example 76, hydrochloride]", "pKi", 8.05],
  ["CC(C)c1nc2c(c(-c3ccc(F)cc3F)n1)CNCC2", "pKi", 7.22]
]}

// next entry
(Q) Give pKi; test system 5-HT2A receptor (Homo sapiens, UniProt P28223); compound Cc1nc2c(c(-c3ccc(Cl)cc3)n1)CCNCC2
(A) 6.33

* * *

target: rat 5-HT7a receptor (Rattus norvegicus)
pKi: −log10 of the molar value. Counter-ions that a name gives are not always drawn.
# pKi values compiled below

Worked examples follow.
{"columns": ["compound", "system_name", "pKi"],
 "data": [
  ["CC(C)c1nc2c(c(-c3ccccc3)n1)CNCC2", "rat 5-HT7a receptor (Rattus norvegicus)", "< 5.00"],
  ["Fc1ccc(-c2nc(Cc3ccccc3)nc3c2CCNCC3)cc1", "rat 5-HT7a receptor (Rattus norvegicus)", 5.30],
  ["CCC(C)c1nc2c(c(-c3ccc(OC(F)(F)F)cc3)n1)CNCC2 (stereo not shown)", "rat 5-HT7a receptor (Rattus norvegicus)", "< 5.00"]
]}

(Q) Give pKi; test system rat 5-HT7a receptor (Rattus norvegicus); compound CC(C)c1nc2c(c(-c3ccc(F)cc3)n1)CNCC2 [Example 21, hydrochloride]
(A) < 5.00

(Q) Give pKi; test system rat 5-HT7a receptor (Rattus norvegicus); compound CC(C)c1nc2c(c(-c3ccc(F)cc3)n1)CCN(C)C2 [Example 84, hydrochloride]
(A) < 5.00

* * *

# Ki values compiled below
biological target: rat 5-HT7a receptor (Rattus norvegicus)
Where a name gives a salt, the structure may show the parent alone.

Worked examples follow.
{"columns": ["compound", "Ki"],
 "data": [
  ["CC(C)c1nc2c(c(-c3ccc(F)c(F)c3)n1)CNCC2 [Example 24, hydrochloride]", "> 10 µM"],
  ["CC(C)c1nc(-c2ccc(-c3ccc(Cl)cc3)cc2)c2c(n1)C(C)CN(Cc1ccccc1)C2 (centres unmarked)", "> 10 µM"],
  ["COc1ccc(-c2nc(CC(C)C)nc3c2CNCC3)cc1", "> 10 µM"],
  ["CC(C)c1nc2c(c(-c3ccc(Cl)cc3)n1)CNCC2", "> 10 µM"],
  ["CC(C)c1nc2c(c(-c3ccc(F)cc3)n1)CN(C)CC2", "> 10 µM"],
  ["CC(C)c1nc2c(c(-c3ccc(F)cc3)n1)CCNC2 [Example 80, hydrochloride]", "> 10 µM"]
]}

(Q) Give a short answer stating reported Ki for c1ccc(Cc2nc3c(c(-c4ccccc4)n2)CNCC3)cc1 .
(A) > 10 µM

(Q) Give a short answer stating reported Ki for CC(C)c1nc(-c2ccc(F)c(Cl)c2)c2c(n1)C(C)CN(Cc1ccccc1)C2 (centres unmarked) .
(A) > 10 µM

* * *

target: rat 5-HT7a receptor (Rattus norvegicus)
Structures can show the parent of a compound that is named as a salt.
# Ki values compiled below

{"columns": ["molecule", "quantity_name", "measured_value"],
 "data": [
  ["CC(C)c1nc2c(c(-c3ccsc3)n1)CCN(C)C2 [Example 91, hydrochloride]", "Ki", "> 10 µM"],
  ["CC(C)c1nc2c(c(-c3ccc(F)cc3)n1)CCC(N1CCCC1)C2 (stereo not drawn)", "Ki", "> 10 µM"],
  ["COc1ccc(-c2nc(C(C)C)nc3c2CCCNC3)cc1", "Ki", "5.4 µM"],
  ["CCC(C)c1nc2c(c(-c3cccc(F)c3)n1)CNCC2 (stereo not drawn)", "Ki", "> 10 µM"]
]}

// next entry
(Q) Give Ki; test system rat 5-HT7a receptor (Rattus norvegicus); molecule CN1CCc2nc(Cc3ccc(F)cc3)nc(-c3ccc(F)cc3)c2C1
(A) > 10 µM
